measured target: human adenosine A1 receptor (Homo sapiens, UniProt P30542)
Construct: host or cells: CHO cells (membranes)
Sequence (P30542 whole entry): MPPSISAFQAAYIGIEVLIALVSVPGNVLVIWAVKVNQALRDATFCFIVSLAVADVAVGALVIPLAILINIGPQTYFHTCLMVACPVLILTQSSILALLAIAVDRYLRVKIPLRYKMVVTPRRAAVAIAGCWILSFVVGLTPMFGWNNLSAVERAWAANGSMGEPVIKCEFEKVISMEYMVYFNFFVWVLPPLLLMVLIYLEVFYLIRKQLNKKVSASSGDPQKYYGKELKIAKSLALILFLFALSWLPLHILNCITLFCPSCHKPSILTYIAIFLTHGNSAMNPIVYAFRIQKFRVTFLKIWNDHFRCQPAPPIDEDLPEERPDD
assay overview: Adenosine A1 receptor binding test (3H-DPCPX binding)
particulars: compound at 100 nmol/L; Table 2, measured by Ricerca Biosciences, LLC; read-out: Inhibitory rate for human adenosine A1 receptor binding (3H-DPCPX binding)
Entries and their inhibition at 0.1 µM
State the answer as a number, implicitly in %.

Consider the worked cases shown below.
O=C(Nc1nc(-c2ccco2)c(C(=O)C2CCOCC2)s1)c1cnc2ccccc2c1	18
O=C(Nc1nc(-c2ccco2)c(C(=O)C2CCOCC2)s1)c1cnc2c(c1)CCC2	37
C=Cc1ccc(C(=O)Nc2nc(-c3ccco3)c(C(=O)C3CCOCC3)s2)cn1	33
Cc1cc(C(=O)Nc2nc(-c3ccco3)c(C(=O)C3CCOCC3)s2)cnc1C	18
CC(=O)c1cc(C(=O)Nc2nc(-c3ccco3)c(C(=O)C3CCOCC3)s2)cnc1C	8

Consider CCc1ccc(C(=O)Nc2nc(-c3ccco3)c(C(=O)C3CCOCC3)s2)cn1 . Its measured inhibition at 0.1 µM is 23

Notebook: O=C(Cc1ccccn1)Nc1nc(-c2ccco2)c(C(=O)C2CCOCC2)s1 , inhibition at 0.1 µM read as 21

Value of measured inhibition at 0.1 µM for the entry CCCc1ccc(C(=O)Nc2nc(-c3ccco3)c(C(=O)C3CCOCC3)s2)cn1 : 23

The molecule COCc1cc(C(=O)Nc2nc(-c3ccco3)c(C(=O)C3CCOCC3)s2)ccn1 showed inhibition at 0.1 µM equal to 21
